MEASURED PARAMETER: melting point

// below: answered compounds
- COMPOUND STRUCTURE: "COC(=O)C1=NN(c2ccccc2)C(C(=O)OC)=NN1c1ccccc1"
  RESULT: "171 to 172 °C"
- COMPOUND STRUCTURE: "CC(C)N(NC(=O)c1ccc(Cl)c(Cl)c1)C(=O)c1ccccc1"
  RESULT: "157 °C"
- COMPOUND STRUCTURE: "C=C(C)C(=O)Nc1cccc(OC(=O)NC(C)(C)CC(C)(C)C)c1"
  RESULT: "118 to 120 °C"
- COMPOUND STRUCTURE: "COc1ccc2c(O)c(C(=O)N(O)c3ccccc3)cnc2c1"
  RESULT: "260 °C"
- COMPOUND STRUCTURE: "COC(=O)C(C)(C)OCC#Cc1cc(C(F)(F)F)ccc1NS(=O)(=O)c1ccc2nc(NC(C)=O)sc2c1"
  RESULT: "104 to 106 °C"

Query string: Give the measured melting point of `Cc1cc(O)nc2nc(SCc3ccccc3)nn12` .
Result string: 219 to 220 °C

Query string: // melting point lookup, key: `CCOC(=O)N1CCN(c2c(F)cc([N+](=O)[O-])c(NC3CC3)c2C)CC1`
Result string: 97 to 98 °C
